- Tested on: OVCAR-3
- ASSAY COMMENT: NCI tumour cell line growth inhibition, 48 h
Activity calls are given as the source filed them. Rule as the data show it: active = GI50 up to about 1.1 µM and inactive = higher.
PROPERTY NAME: GI50

Sample records with GI50:
CCOC(=O)c1cc2c(OC(C)=O)ccc(OC(C)=O)c2s1
1.61 µM (inactive)
CC(=O)O[C@H]1CCC2[C@@H]3CCC4Nc5oncc5C[C@]4(C)C3CC[C@@]21C (stereo not given in full)
2.55 µM (inactive)
CSCCC(NCc1c(O)ccc2c(-c3ccccc3)cc(=O)oc12)C(=O)O (stereo not given)
> 100 µM (inactive)

(Q) I have this compound here, `COc1ccc(/C(Cl)=C(\C=O)c2ccc([N+](=O)[O-])cc2)cc1OC` , and I need its recorded GI50.
(A) 11.5 µM (inactive)

(Q) I have this compound here, `O=C(NCC(O)CNC(=O)C(F)(F)F)C(F)(F)F` , and I need its recorded GI50.
(A) > 100 µM (inactive)

(Q) I have this compound here, `CO/C(=N\N=C\c1ccc(Cl)cc1Cl)c1ccncc1` , and I need its recorded GI50.
(A) > 10 µM (inactive)

(Q) I have this compound here, CSCCC(NOC(=O)Cc1ccccc1)P(=O)(O)c1ccccc1 (stereo not given) , and I need its recorded GI50.
(A) > 100 µM (inactive)

(Q) I have this compound here, Cc1cc(C)c(P2C(=C(O[Si](C(C)C)(C(C)C)C(C)C)C(C)(C)C)C2(c2ccccc2)c2ccccc2)c(C)c1 (stereo not given) , and I need its recorded GI50.
(A) > 100 µM (inactive)

(Q) I have this compound here, `COC(=O)Cc1cc(=O)[nH]c2c1C(=O)CCC2` , and I need its recorded GI50.
(A) > 100 µM (inactive)

(Q) I have this compound here, `CC[C@]12C=CCN3CC[C@@]4(c5ccc(OC)cc5N(C)[C@H]4[C@@](O)(C(=O)OC)[C@@H]1OC(C)=O)[C@@H]32` , and I need its recorded GI50.
(A) 102 µM (inactive)

====

- Tested on: DLD-1
- ASSAY COMMENT: NCI tumour cell line growth inhibition, 48 h
Active and inactive are the calls of the source. Cut-off read from the data, not from the text of the source: active = GI50 up to about 1.1 µM and inactive = higher.
Please answer using one outcome listed in active, inactive

Example cases with answers are listed next.
CCn1c(O)c(C(=O)Nc2cccs2)c(=O)n(CC)c1=S
inactive
O=C1OC2CC=CC1C2 (stereo unspecified)
inactive
O=C(NCCCCCCNC(=O)n1cc(F)c(=O)[nH]c1=O)NCCCOCCOCCOCCOCCOCCOCCOCCOCCOCCOCCOCCOCCOCCOCCOCCOCCOCCOCCOCCOCCOCCCNC(=O)C(O)C(O)C(O)C(O)CO (stereo unspecified)
inactive
Cc1ccccc1/C=N/C12CC3CC(CC(C3)C1)C2
inactive
CCCCn1c2ccccc2c2ccc3c(c21)C(=O)C=CC3=O
inactive
Cc1ccc(N2C(=O)CS/C2=C(\C#N)c2nc3ccccc3[nH]2)cc1
inactive

(Q) Which outcome was entered for the compound COC(=O)C(C#CCCCCC#CC(NC(=O)OCc1ccccc1)(C(=O)OC)C(F)(F)F)(NC(=O)OCc1ccccc1)C(F)(F)F (stereo unspecified) in this test?
(A) inactive

(Q) Which outcome was entered for the compound `N#CN=C(NCc1ccccc1)NCc1ccccc1` in this test?
(A) inactive

(Q) Which outcome was entered for the compound `COc1ccc2ccc([Se]c3ccc4ccc(OC)cc4c3)cc2c1` in this test?
(A) inactive

(Q) Which outcome was entered for the compound C=C(CC(NC(=O)c1ccc(C(CC)Cc2cnc3nc(N)nc(N)c3n2)cc1)C(=O)O)C(=O)O (stereo unspecified) in this test?
(A) active

All figures here come from ChEMBL document CHEMBL1201862.
